TARGET OR TEST SYSTEM: DYRK1A (human)
ASSAY SUMMARY: KINOMEscan competition binding
RECORDED CONDITIONS: compound 10.0 µM
Cut-off 80% on kinase still bound, per cent of control: below means criterion met, at or above means criterion not met.

{"columns": ["CHEMICAL STRUCTURE", "DISCRETE LABEL"],
 "data": [
  ["C=CC(=O)Nc1cc(NC(=O)c2ccc(C)c(NC(=O)c3ccno3)c2)cc(C(F)(F)F)c1", "criterion not met"],
  ["O=C(NC1CC1)c1cccc(-c2ccc3c(NC(=O)C4CC4)n[nH]c3c2)c1", "criterion not met"],
  ["CCCS(=O)(=O)Nc1ccc(F)c(C(=O)c2c[nH]c3ncc(-c4ccc(Cl)cc4)cc23)c1F", "criterion not met"],
  ["Cc1ccc2nc(NCCN)c3ncc(C)n3c2c1", "criterion met"],
  ["O=C(NOC[C@H](O)CO)c1ccc(F)c(F)c1Nc1ccc(I)cc1F", "criterion not met"]
]}

Lab note: next compound to report on.
QUERY: Determine if `CN(C)C/C=C/C(=O)Nc1cccc(Nc2ncc3c(n2)N(C)c2ccccc2C(=O)N3C)c1` shows kinase still bound, per cent of control strictly lower than 80%.
RESULT: criterion met

* * *

TARGET OR TEST SYSTEM: JAK2 JH1 catalytic (human) (UniProt O60674)
Sequence (O60674 whole entry, looked up): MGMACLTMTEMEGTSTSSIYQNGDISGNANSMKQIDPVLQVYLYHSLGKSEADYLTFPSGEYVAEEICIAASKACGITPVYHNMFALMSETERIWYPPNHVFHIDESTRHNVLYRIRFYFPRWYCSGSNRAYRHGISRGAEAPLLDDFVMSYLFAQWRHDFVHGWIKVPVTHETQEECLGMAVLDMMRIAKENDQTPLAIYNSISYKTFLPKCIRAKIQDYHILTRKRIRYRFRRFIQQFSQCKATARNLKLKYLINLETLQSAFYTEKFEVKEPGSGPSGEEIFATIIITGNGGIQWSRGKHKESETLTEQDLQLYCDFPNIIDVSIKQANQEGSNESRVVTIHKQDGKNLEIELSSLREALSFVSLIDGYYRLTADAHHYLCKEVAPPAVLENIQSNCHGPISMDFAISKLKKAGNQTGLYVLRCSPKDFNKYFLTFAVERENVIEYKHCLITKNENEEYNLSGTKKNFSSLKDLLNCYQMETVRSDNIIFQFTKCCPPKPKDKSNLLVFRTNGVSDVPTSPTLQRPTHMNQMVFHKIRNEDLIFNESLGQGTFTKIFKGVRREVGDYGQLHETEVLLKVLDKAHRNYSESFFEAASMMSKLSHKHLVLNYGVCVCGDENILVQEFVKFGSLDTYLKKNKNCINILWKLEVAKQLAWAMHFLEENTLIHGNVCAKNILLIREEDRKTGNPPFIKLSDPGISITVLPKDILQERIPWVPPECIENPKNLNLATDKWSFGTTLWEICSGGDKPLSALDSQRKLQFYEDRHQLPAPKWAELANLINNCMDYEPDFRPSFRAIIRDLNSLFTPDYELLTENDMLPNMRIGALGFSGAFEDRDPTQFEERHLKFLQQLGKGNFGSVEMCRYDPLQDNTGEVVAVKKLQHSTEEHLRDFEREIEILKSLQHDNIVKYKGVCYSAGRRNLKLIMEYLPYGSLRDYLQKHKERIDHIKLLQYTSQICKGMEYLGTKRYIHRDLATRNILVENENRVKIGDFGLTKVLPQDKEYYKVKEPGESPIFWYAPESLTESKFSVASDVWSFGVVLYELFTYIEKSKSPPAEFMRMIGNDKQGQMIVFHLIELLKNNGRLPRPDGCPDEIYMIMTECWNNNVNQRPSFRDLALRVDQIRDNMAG
ASSAY SUMMARY: KINOMEscan competition binding
RECORDED CONDITIONS: compound 10.0 µM
METRIC NAME: kinase still bound, per cent of control (%)
Give bare numbers, in %.

Solved entries:
{"columns": ["COMPOUND", "kinase still bound, per cent of control [%]"],
 "data": [
  ["CC[C@@H]1C(=O)N(C)c2cnc(Nc3ccc(C(=O)NC4CCN(C)CC4)cc3OC)nc2N1C1CCCC1", 100],
  ["C=CC(=O)Nc1cc(NC(=O)c2ccc(C)c(NC(=O)c3ccno3)c2)cc(C(F)(F)F)c1", 74],
  ["N#Cc1c(NC(=O)c2cccc3ccccc23)sc2c1CCCC2", 100]
]}

For every item below, please supply its kinase still bound, per cent of control.
1. O=C(O)c1ccc(Nc2ncc3c(n2)-c2ccc(Cl)cc2C(c2c(F)cccc2F)=NC3)cc1
2. CN(C)C/C=C/C(=O)Nc1cccc(Nc2ncc3c(n2)N(C)c2ccccc2C(=O)N3C)c1
3. COc1cc(N2CCN(C)CC2)ccc1Nc1nc(N)c(C(=O)c2c(Cl)cccc2Cl)s1
4. COc1cc(C(=O)NC2CCN(C)CC2)ccc1Nc1ncc2c(n1)N(C1CCCC1)C(C)CC(=O)N2C (stereo not given)
5. Cc1ccc(NC(=O)c2cccc(C(C)(C)C#N)c2)cc1Nc1ccc2ncn(C)c(=O)c2c1
6. Cc1ccc(C(=O)Nc2cccc(C(F)(F)F)c2)cc1Nc1cncc(C(N)=O)c1
7. CCCS(=O)(=O)Nc1ccc(F)c(C(=O)c2c[nH]c3ncc(-c4ccc(Cl)cc4)cc23)c1F

RESULT:
1. 100
2. 0.75
3. 80
4. 100
5. 100
6. 100
7. 84

For every item below, please supply its kinase still bound, per cent of control.
1. O=C(NOC[C@H](O)CO)c1ccc(F)c(F)c1Nc1ccc(I)cc1F
2. C[C@@H](Oc1cc(-n2cnc3ccc(CN4CCN(C)CC4)cc32)sc1C(N)=O)c1ccccc1C(F)(F)F
3. Cn1c(=O)n(-c2ccc(C(C)(C)C#N)cc2)c2c3cc(-c4cnc5ccccc5c4)ccc3ncc21
4. Nc1ccc(-c2ccc3ncc4ccc(=O)n(-c5cccc(C(F)(F)F)c5)c4c3c2)cn1
5. O=C(NC1CC1)c1cccc(-c2ccc3c(NC(=O)C4CC4)n[nH]c3c2)c1

RESULT:
100
87
20
64
18

* * *

TARGET OR TEST SYSTEM: GRK7 (human)
ASSAY SUMMARY: KINOMEscan competition binding
RECORDED CONDITIONS: compound 10.0 µM
METRIC NAME: kinase still bound, per cent of control (%)
Answers are plain numbers, in %.

Solved entries:
{"columns": ["CHEMICAL STRUCTURE", "UOM", "kinase still bound, per cent of control"],
 "data": [
  ["C=CC(=O)Nc1cccc(Nc2nc(N[C@H]3CC[C@H](N(C)C)CC3)nc3c2ncn3C(C)C)c1", "%", 8.7],
  ["O=C(NC1CC1)c1cccc(-c2ccc3c(NC(=O)C4CC4)n[nH]c3c2)c1", "%", 84]
]}

QUERY: Item `N#Cc1c(NC(=O)c2cccc3ccccc23)sc2c1CCCC2` with GRK7 (human) - kinase still bound, per cent of control?
RESULT: 88

* * *

TARGET OR TEST SYSTEM: AKT3 (human) (UniProt Q9Y243)
Sequence (Q9Y243 whole entry, looked up): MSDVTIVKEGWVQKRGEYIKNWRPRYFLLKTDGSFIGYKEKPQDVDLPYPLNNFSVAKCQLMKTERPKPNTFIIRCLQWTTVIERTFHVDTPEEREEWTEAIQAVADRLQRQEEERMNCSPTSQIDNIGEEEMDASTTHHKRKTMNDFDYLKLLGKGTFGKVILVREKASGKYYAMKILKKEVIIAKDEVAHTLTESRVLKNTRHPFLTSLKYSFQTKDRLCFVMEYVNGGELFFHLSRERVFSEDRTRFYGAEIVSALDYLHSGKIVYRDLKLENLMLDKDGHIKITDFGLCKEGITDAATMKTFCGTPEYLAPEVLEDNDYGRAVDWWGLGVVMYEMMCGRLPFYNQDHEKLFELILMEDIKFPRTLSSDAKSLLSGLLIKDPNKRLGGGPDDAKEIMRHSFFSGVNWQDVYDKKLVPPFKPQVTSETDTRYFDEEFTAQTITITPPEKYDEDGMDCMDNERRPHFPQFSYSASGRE
ASSAY SUMMARY: KINOMEscan competition binding
RECORDED CONDITIONS: compound 10.0 µM
METRIC NAME: kinase still bound, per cent of control (%)
Numbers only, in %.

Solved entries:
{"columns": ["CHEMICAL STRUCTURE", "kinase still bound, per cent of control / %"],
 "data": [
  ["O=C(NOC[C@H](O)CO)c1ccc(F)c(F)c1Nc1ccc(I)cc1F", 89],
  ["O=C1Nc2ccc(I)cc2/C1=C/c1cc(Br)c(O)c(Br)c1", 100],
  ["C[C@@H](Oc1cc(-n2cnc3ccc(CN4CCN(C)CC4)cc32)sc1C(N)=O)c1ccccc1C(F)(F)F", 100],
  ["CC[C@@H]1C(=O)N(C)c2cnc(Nc3ccc(C(=O)NC4CCN(C)CC4)cc3OC)nc2N1C1CCCC1", 100],
  ["O=C(NC1CC1)c1cccc(-c2ccc3c(NC(=O)C4CC4)n[nH]c3c2)c1", 100]
]}

For every item below, please supply its kinase still bound, per cent of control.
1. Nc1ccc(-c2ccc3ncc4ccc(=O)n(-c5cccc(C(F)(F)F)c5)c4c3c2)cn1
2. COc1cc(C(=O)NC2CCN(C)CC2)ccc1Nc1ncc2c(n1)N(C1CCCC1)CCC(=O)N2C(C)C
3. CN(C)C/C=C/C(=O)Nc1cccc(Nc2ncc3c(n2)N(C)c2ccccc2C(=O)N3C)c1
4. OCCCNc1cc(-c2ccnc(Nc3cccc(Cl)c3)n2)ccn1
5. N#Cc1c(NC(=O)c2cccc3ccccc23)sc2c1CCCC2
6. Cc1ccc(C(=O)Nc2cccc(C(F)(F)F)c2)cc1Nc1cncc(C(N)=O)c1

RESULT:
[100, 100, 100, 100, 82, 100]

For every item below, please supply its kinase still bound, per cent of control.
1. CCC(=O)N1CCN(c2ccc(-n3c(=O)ccc4cnc5ccc(-c6cnc7ccccc7c6)cc5c43)cc2C(F)(F)F)CC1
2. CCCS(=O)(=O)Nc1ccc(F)c(C(=O)c2c[nH]c3ncc(-c4ccc(Cl)cc4)cc23)c1F
3. C=CC(=O)Nc1cccc(Oc2nc(Nc3ccc(N4CCN(C)CC4)cc3OC)ncc2Cl)c1
4. CCN1CCN(Cc2ccc(Nc3ncc4c(n3)N(C)c3ccccc3C(=O)N4C)cc2C(F)(F)F)CC1

RESULT:
[77, 100, 100, 100]

For every item below, please supply its kinase still bound, per cent of control.
1. Cc1ccc2nc(NCCN)c3ncc(C)n3c2c1
2. Cc1ccc(NC(=O)c2cccc(C(C)(C)C#N)c2)cc1Nc1ccc2ncn(C)c(=O)c2c1
3. Cc1cc([C@@H](C)Nc2ccccc2C(=O)O)c2nc(N3CCOCC3)cc(=O)n2c1

RESULT:
100
100
100

* * *

I'd appreciate it if you could supply kinase still bound, per cent of control values for the items below.
TARGET OR TEST SYSTEM: UniProt Q9H1R3
Sequence (Q9H1R3 whole entry, looked up): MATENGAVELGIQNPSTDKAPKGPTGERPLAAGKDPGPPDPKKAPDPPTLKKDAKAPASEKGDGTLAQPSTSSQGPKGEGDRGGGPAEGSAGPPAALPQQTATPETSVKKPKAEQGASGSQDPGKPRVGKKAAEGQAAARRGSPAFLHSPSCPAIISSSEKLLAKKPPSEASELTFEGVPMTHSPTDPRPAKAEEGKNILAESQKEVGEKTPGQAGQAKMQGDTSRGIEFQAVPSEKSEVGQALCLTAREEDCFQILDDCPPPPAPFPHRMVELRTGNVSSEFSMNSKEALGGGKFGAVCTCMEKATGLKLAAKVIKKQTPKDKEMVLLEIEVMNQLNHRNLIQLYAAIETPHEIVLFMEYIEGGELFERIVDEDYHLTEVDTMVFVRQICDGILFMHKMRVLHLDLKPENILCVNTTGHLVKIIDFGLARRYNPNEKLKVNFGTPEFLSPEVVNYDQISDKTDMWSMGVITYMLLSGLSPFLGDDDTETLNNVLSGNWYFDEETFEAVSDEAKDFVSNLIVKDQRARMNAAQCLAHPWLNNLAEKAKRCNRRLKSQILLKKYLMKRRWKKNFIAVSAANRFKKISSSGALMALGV
ASSAY SUMMARY: KINOMEscan competition binding
RECORDED CONDITIONS: compound 10.0 µM
Reply with the number and its unit after it.

{"columns": ["COMPOUND", "kinase still bound, per cent of control"],
 "data": [
  ["CN(C)C/C=C/C(=O)Nc1cccc(Nc2ncc3c(n2)N(C)c2ccccc2C(=O)N3C)c1", "46%"],
  ["COc1cc(N2CCN(C)CC2)ccc1Nc1nc(N)c(C(=O)c2c(Cl)cccc2Cl)s1", "87%"],
  ["O=C1Nc2ccc(I)cc2/C1=C/c1cc(Br)c(O)c(Br)c1", "85%"]
]}

For every item below, please supply its kinase still bound, per cent of control.
1. Cc1ccc2nc(NCCN)c3ncc(C)n3c2c1
2. Nc1ccc(-c2ccc3ncc4ccc(=O)n(-c5cccc(C(F)(F)F)c5)c4c3c2)cn1
3. CCOc1cc2ncc(C#N)c(Nc3ccc(OCc4ccccn4)c(Cl)c3)c2cc1NC(=O)/C=C/CN(C)C

RESULT:
1: 71%; 2: 100%; 3: 79%

For every item below, please supply its kinase still bound, per cent of control.
1. O=C(NC1CC1)c1cccc(-c2ccc3c(NC(=O)C4CC4)n[nH]c3c2)c1
2. C=CC(=O)Nc1cc(NC(=O)c2ccc(C)c(NC(=O)c3ccno3)c2)cc(C(F)(F)F)c1
3. OCCCNc1cc(-c2ccnc(Nc3cccc(Cl)c3)n2)ccn1
4. C=CC(=O)Nc1cccc(Oc2nc(Nc3ccc(N4CCN(C)CC4)cc3OC)ncc2Cl)c1
5. O=C(O)c1ccc(Nc2ncc3c(n2)-c2ccc(Cl)cc2C(c2c(F)cccc2F)=NC3)cc1
6. CCCS(=O)(=O)Nc1ccc(F)c(C(=O)c2c[nH]c3ncc(-c4ccc(Cl)cc4)cc23)c1F

RESULT:
12%
100%
100%
100%
100%
18%

QUERY: Requested field: kinase still bound, per cent of control. Item: COc1cc(C(=O)NC2CCN(C)CC2)ccc1Nc1ncc2c(n1)N(C1CCCC1)C(C)CC(=O)N2C (stereo not drawn)
RESULT: 100%

meta.source: the kinase profiling compilation of Christmann-Franck et al. (2016)
